- tested-on: UniProtKB Q00987
- Sequence (Q00987 whole entry): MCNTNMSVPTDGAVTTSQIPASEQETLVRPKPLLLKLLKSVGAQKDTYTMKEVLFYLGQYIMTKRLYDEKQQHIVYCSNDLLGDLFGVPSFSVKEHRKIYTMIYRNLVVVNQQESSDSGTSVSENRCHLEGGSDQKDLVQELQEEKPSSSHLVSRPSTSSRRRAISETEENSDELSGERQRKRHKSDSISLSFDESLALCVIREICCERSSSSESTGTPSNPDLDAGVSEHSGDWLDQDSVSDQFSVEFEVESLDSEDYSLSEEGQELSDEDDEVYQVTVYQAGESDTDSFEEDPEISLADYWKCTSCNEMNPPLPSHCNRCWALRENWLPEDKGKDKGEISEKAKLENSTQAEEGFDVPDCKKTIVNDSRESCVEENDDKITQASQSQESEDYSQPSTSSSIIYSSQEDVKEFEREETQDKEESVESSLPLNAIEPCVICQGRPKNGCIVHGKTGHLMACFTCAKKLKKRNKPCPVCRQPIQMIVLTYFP
- experimental-details: MDM2 binding screen: displacement of fluorescent p53 peptide probe FP53 (fluorescence polarization)
- recorded-conditions: Acid 25; initial screen; crude macrocycle reactions
- Method: We screened Library 2 in 384-microwell plates by dispensing the target protein MDM2 and reporter peptide into the wells containing the macrocycle reactions. The products were screened for displacement of a p53-based fluorescent peptide from human MDM2. […] For each macrocycle, the MDM2 binding was measured once. One fluorescence anisotropy reading was taken with a Tecan Infinite F200 Pro fluorescence plate reader (excitation at 485 nm, emission at 535 nm) at 25 °C. […]
Numbered stars: 1 amine (or outer) side, 2 acyl side, 3 side chain; on linkers, the order of the positions; unused ones are H or OH. Bridge positions count the residues as written; N and C are the ends. Square brackets hold non-standard residues; d marks the D form. Peptide text beside a SMILES is read from it. * marks the point of attachment. ξ: configuration not given here. Pro(cis-4-NHBenzoyl(4-Cl)) = O=C(N[C@@H]1CN[C@H](C(=O)O)C1)c1ccc(Cl)cc1; ξPro(4ξ-NHCOC6H4-4-Cl) = O=C(NC1CNC(C(=O)O)C1)c1ccc(Cl)cc1; Benzoyl(4-Cl) = O=C(c1ccc(Cl)cc1)*; Cysteamide = C(CS[*:3])N[*:1]; Api = NC1(C(=O)O)CCNCC1; Dap = NC[C@H](N)C(=O)O; Mpa = O=C(O)CCS
Binarize fraction fluorescent probe displaced, Screen at 0.1; below is TRUE, at or above is FALSE.

Item `O=C1CCSSCCNC(=O)[C@H](CNC(=O)c2ccc(Cl)cc2)NC(=O)[C@H](Cc2ccccc2)NC(=O)CCN1` : fraction fluorescent probe displaced, Screen beneath 0.1, strictly?
TRUE

Item `O=C1CCSSCCNC(=O)[C@H](Cc2c[nH]c3ccccc23)NC(=O)[C@H](CNC(=O)c2ccc(Cl)cc2)NC(=O)c2cccc(c2)CN1` : fraction fluorescent probe displaced, Screen beneath 0.1, strictly?
FALSE

Item O=C1CCSSCCNC(=O)C2(CCN(C(=O)c3ccc(Cl)cc3)CC2)NC(=O)[C@@H]2CCCN2C(=O)[C@H](Cc2ccccc2)N1 [X F B1 D6 Acid 25] ([Mpa]FP[Api](Benzoyl(4-Cl))-Cysteamide; disulfide 1-C) : fraction fluorescent probe displaced, Screen beneath 0.1, strictly?
FALSE

Item O=C1CCSSCCNC(=O)C2(CCN(C(=O)c3ccc(Cl)cc3)CC2)NC(=O)C2CCCN2C(=O)C(Cc2c[nH]c3ccccc23)N1 (centres unmarked) [X W B1 D6 Acid 25] ([Mpa]WP[Api](Benzoyl(4-Cl))-Cysteamide; disulfide 1-C; configuration not given here) : fraction fluorescent probe displaced, Screen beneath 0.1, strictly?
FALSE

Item O=C(NC1CC2C(=O)NCCSSCCC(=O)N3CCCC(C3)C(=O)NC(Cc3c[nH]c4ccccc34)C(=O)N2C1)c1ccc(Cl)cc1 (centres unmarked) : fraction fluorescent probe displaced, Screen beneath 0.1, strictly?
FALSE

Item O=C1NC(Cc2c[nH]c3ccccc23)C(=O)NCCSSCCC(=O)N2CCN(C(=O)c3ccc(Cl)cc3)CC2C(=O)N2CCCC1C2 (mixture of isomers) : fraction fluorescent probe displaced, Screen beneath 0.1, strictly?
FALSE

Item O=C(N[C@H]1C[C@H]2C(=O)N[C@@H](Cc3ccccc3)C(=O)NCCSSCCC(=O)N3CCC[C@H]3C(=O)N2C1)c1ccc(Cl)cc1 [X B1 D5 F Acid 25] ([Mpa]P[Pro(cis-4-NHBenzoyl(4-Cl))]F-Cysteamide; disulfide 1-C) : fraction fluorescent probe displaced, Screen beneath 0.1, strictly?
FALSE

Item `O=C1N[C@@H](Cc2c[nH]c3ccccc23)C(=O)NC2(CCN(C(=O)c3ccc(Cl)cc3)CC2)C(=O)NCCSSCCC(=O)N2CCC[C@H]1C2` : fraction fluorescent probe displaced, Screen beneath 0.1, strictly?
FALSE

Item `O=C1CCNC(=O)[C@H](Cc2c[nH]c3ccccc23)NC(=O)[C@H](CNC(=O)c2ccc(Cl)cc2)NC(=O)CCSSCCN1` : fraction fluorescent probe displaced, Screen beneath 0.1, strictly?
FALSE

Item `O=C1CCNC(=O)C2(CCN(C(=O)c3ccc(Cl)cc3)CC2)NC(=O)[C@H](Cc2c[nH]c3ccccc23)NC(=O)CCSSCCN1` : fraction fluorescent probe displaced, Screen beneath 0.1, strictly?
TRUE

Item O=C1CCSSCCNC(=O)C2CCCN2C(=O)C2CC(NC(=O)c3ccc(Cl)cc3)CN2C(=O)C(Cc2c[nH]c3ccccc23)N1 (centres unmarked) [X W D5 B1 Acid 25] ([Mpa]W[ξPro(4ξ-NHCOC6H4-4-Cl)]P-Cysteamide; disulfide 1-C; configuration not given here) : fraction fluorescent probe displaced, Screen beneath 0.1, strictly?
FALSE

Item O=C1CCNC(=O)C2CN(C(=O)c3ccc(Cl)cc3)CCN2C(=O)CCSSCCNC(=O)C(Cc2ccccc2)N1 (mixture of isomers) : fraction fluorescent probe displaced, Screen beneath 0.1, strictly?
TRUE

Item O=C1CCSSCCNC(=O)[C@H](Cc2ccccc2)NC(=O)[C@@H]2CCCN2C(=O)[C@H](CNC(=O)c2ccc(Cl)cc2)N1 [X D3 B1 F Acid 25] ([Mpa][Dap](Benzoyl(4-Cl))PF-Cysteamide; disulfide 1-C) : fraction fluorescent probe displaced, Screen beneath 0.1, strictly?
FALSE

Item `O=C1CCSSCCNC(=O)[C@H]2CCCN(C2)C(=O)C2(CCN(C(=O)c3ccc(Cl)cc3)CC2)NC(=O)[C@H](Cc2ccccc2)N1` : fraction fluorescent probe displaced, Screen beneath 0.1, strictly?
TRUE

Item O=C1CCSSCCNC(=O)[C@@H]2CCCN2C(=O)[C@H](Cc2c[nH]c3ccccc23)NC(=O)[C@H](CNC(=O)c2ccc(Cl)cc2)N1 [X D3 W B1 Acid 25] ([Mpa][Dap](Benzoyl(4-Cl))WP-Cysteamide; disulfide 1-C) : fraction fluorescent probe displaced, Screen beneath 0.1, strictly?
FALSE

Item O=C1CCSSCCNC(=O)[C@@H]2CCCN2C(=O)[C@H](CNC(=O)c2ccc(Cl)cc2)NC(=O)[C@H](Cc2ccccc2)N1 [X F D3 B1 Acid 25] ([Mpa]F[Dap](Benzoyl(4-Cl))P-Cysteamide; disulfide 1-C) : fraction fluorescent probe displaced, Screen beneath 0.1, strictly?
TRUE

Item `O=C1CCSSCCNC(=O)[C@H](Cc2c[nH]c3ccccc23)NC(=O)c2cccc(c2)CNC(=O)C2(CCN(C(=O)c3ccc(Cl)cc3)CC2)N1` : fraction fluorescent probe displaced, Screen beneath 0.1, strictly?
FALSE

Item O=C1CCSSCCNC(=O)C2CN(C(=O)c3ccc(Cl)cc3)CCN2C(=O)C(Cc2c[nH]c3ccccc23)NC(=O)CCN1 (centres unmarked) : fraction fluorescent probe displaced, Screen beneath 0.1, strictly?
TRUE

Item `O=C1CCSSCCNC(=O)C2(CCN(C(=O)c3ccc(Cl)cc3)CC2)NC(=O)[C@H](Cc2c[nH]c3ccccc23)NC(=O)CCN1` : fraction fluorescent probe displaced, Screen beneath 0.1, strictly?
TRUE

Item O=C(NC1CC2C(=O)NCCSSCCC(=O)N3CCCC(C3)C(=O)NC(Cc3ccccc3)C(=O)N2C1)c1ccc(Cl)cc1 (centres unmarked) : fraction fluorescent probe displaced, Screen beneath 0.1, strictly?
TRUE
